- EXPERIMENT: computed physicochemical properties
- CONDITIONS: LipE = pCC50 (HT29) – logD (at pH 7.4)

MOLECULE: CC1=C(CC(=O)N2CCN(CCCN(C)C)CC2)c2cc(F)ccc2/C1=C\c1nc2ccccc2s1 [Compound 62]
LipE: > 3

MOLECULE: CC1=C(CC(=O)NCCN2CCCC2)c2cc(F)ccc2/C1=C\c1nc2ccccc2s1 [Compound 61]
LipE: > 3

MOLECULE: CSc1ccc(/C=C2/C(C)=C(CC(=O)NCCN(C)C)c3cc(F)ccc32)cc1 [Compound 1, sulindac sulfide amide]
LipE: 1.78

MOLECULE: CSc1ccc(/C=C2/C(C)=C(CC(=O)NCCC3CCCN3C)c3cc(F)ccc32)cc1 (stereo not shown) [Compound 41]
LipE: > 3
